This collection of values is drawn from patent US11628228B2.

# Test system: S180-bearing mice
# Test method notes: Bio-distribution in tumor-bearing mice
# Format: in vivo
# Cond: S180-bearing mice, tail vein, 60 min

{"Compound": "O=C(CCC[N+]#[C][99Tc-5]([C]#[N+]CCCC(=O)NC1C(O)OC(CO)C(O)C1O)([C]#[N+]CCCC(=O)NC1C(O)OC(CO)C(O)C1O)([C]#[N+]CCCC(=O)NC1C(O)OC(CO)C(O)C1O)([C]#[N+]CCCC(=O)NC1C(O)OC(CO)C(O)C1O)[C]#[N+]CCCC(=O)NC1C(O)OC(CO)C(O)C1O)NC1C(O)OC(CO)C(O)C1O (stereo not shown) [[^99mTc-(CN3DG)6]^+]", "Endpoint unit": "% ID/g", "Kidney uptake": 1.05}
{"Compound": "O=C(CCCC[N+]#[C][99Tc-5]([C]#[N+]CCCCC(=O)NC1C(O)OC(CO)C(O)C1O)([C]#[N+]CCCCC(=O)NC1C(O)OC(CO)C(O)C1O)([C]#[N+]CCCCC(=O)NC1C(O)OC(CO)C(O)C1O)([C]#[N+]CCCCC(=O)NC1C(O)OC(CO)C(O)C1O)[C]#[N+]CCCCC(=O)NC1C(O)OC(CO)C(O)C1O)NC1C(O)OC(CO)C(O)C1O (stereo not shown) [[^99mTc-(CN4DG)6]^+]", "Endpoint unit": "% ID/g", "Kidney uptake": 1.57}
{"Compound": "O=C(CC[N+]#[C][99Tc-5]([C]#[N+]CCC(=O)NC1C(O)OC(CO)C(O)C1O)([C]#[N+]CCC(=O)NC1C(O)OC(CO)C(O)C1O)([C]#[N+]CCC(=O)NC1C(O)OC(CO)C(O)C1O)([C]#[N+]CCC(=O)NC1C(O)OC(CO)C(O)C1O)[C]#[N+]CCC(=O)NC1C(O)OC(CO)C(O)C1O)NC1C(O)OC(CO)C(O)C1O (stereo not shown) [[^99mTc-(CN2DG)6]^+]", "Endpoint unit": "% ID/g", "Kidney uptake": 1.17}
{"Compound": "O=C(CCCCC[N+]#[C][99Tc-5]([C]#[N+]CCCCCC(=O)NC1C(O)OC(CO)C(O)C1O)([C]#[N+]CCCCCC(=O)NC1C(O)OC(CO)C(O)C1O)([C]#[N+]CCCCCC(=O)NC1C(O)OC(CO)C(O)C1O)([C]#[N+]CCCCCC(=O)NC1C(O)OC(CO)C(O)C1O)[C]#[N+]CCCCCC(=O)NC1C(O)OC(CO)C(O)C1O)NC1C(O)OC(CO)C(O)C1O (stereo not shown) [[^99mTc-(CN5DG)6]^+]", "Endpoint unit": "% ID/g", "Kidney uptake": 2.68}
